- Test details: Solubility in water
- Recorded conditions: detailed description
Recorded endpoint: Solubility in water (in words)

compound="COc1cccc2c1C(=O)c1c(O)c3c(c(O)c1C2=O)C[C@@](O)(C(=O)CO)C[C@@H]3O[C@H]1C[C@H](N)[C@@H](O)[C@H](C)O1 [epirubicin base, epirubicin]" val="insoluble in water"
compound="COc1cccc2c1C(=O)c1c(O)c3c(c(O)c1C2=O)C[C@@](O)(C(C)=O)C[C@@H]3O[C@H]1C[C@H](N)[C@H](O)[C@H](C)O1 [Daunorubicin base, daunorubicin]" val="insoluble in water"
